So I've got a bunch of compounds here, and I need their pIC50 values.
target: recombinant human Lp-PLA2 (Homo sapiens, UniProt Q13093); assay: Recombinant human Lp-PLA2 assay (rhLp-PLA2, PED6 assay); details: recombinant human Lp-PLA2, PED6 substrate; upper limit for pIC50 in this assay is 9.3
Sequence (Q13093 22-441): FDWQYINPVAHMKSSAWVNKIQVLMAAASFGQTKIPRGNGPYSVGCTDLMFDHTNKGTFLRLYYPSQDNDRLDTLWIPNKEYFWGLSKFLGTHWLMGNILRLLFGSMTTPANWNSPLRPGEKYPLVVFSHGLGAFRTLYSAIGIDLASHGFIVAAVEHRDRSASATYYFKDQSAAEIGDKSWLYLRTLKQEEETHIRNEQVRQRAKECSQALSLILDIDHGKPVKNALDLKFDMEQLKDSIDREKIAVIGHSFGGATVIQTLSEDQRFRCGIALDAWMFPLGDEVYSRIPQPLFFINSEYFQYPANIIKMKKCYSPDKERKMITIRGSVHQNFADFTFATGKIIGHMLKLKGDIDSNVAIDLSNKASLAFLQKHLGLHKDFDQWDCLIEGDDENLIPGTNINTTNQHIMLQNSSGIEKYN
pIC50: −log10 of the molar value. Counter-ions that a name gives are not always drawn.

Ask | Look up pIC50 of CN1CCn2c1cc(OCc1ccc(Oc3cccc(C#N)c3)c(F)c1)nc2=O [Example E63, trifluoroacetic acid salt] and report it.
Reply | ≥ 8.00

Ask | Give the value of pIC50 reported for the following: N#Cc1ccc(Oc2ccc(COc3cc4n(c(=O)n3)CCN4)cc2F)cc1C(F)(F)F [Example 118]
Reply | 9.10

Ask | Quick one: give measured pIC50 for N#Cc1cc(COc2cc3n(c(=O)n2)CCN3)ccc1Oc1cccc(C(F)(F)F)c1 [Example 112]
Reply | ≥ 8.00

Ask | Fill in pIC50 for record CN1CCn2c1cc(OCc1ccc(Oc3ccc(F)c(F)c3)c(F)c1)nc2=O [Example E4]
Reply | ≥ 9.00

Ask | Look up pIC50 of CN1CCn2c1cc(OCc1ccc(Oc3ccc(F)c(C#N)c3)c(C#N)c1)nc2=O [Example E52] and report it.
Reply | ≥ 8.00

Ask | Retrieve pIC50 measured for N#Cc1cc(COc2cc3n(c(=O)n2)CCN3)ccc1Oc1cccc(C(F)(F)F)c1 [Example E67] and print it.
Reply | ≥ 9.00

Ask | For the compound CN1CCn2c1cc(OCc1ccc(Oc3cccc(C(F)(F)F)c3)c(C#N)c1)nc2=O [Example E1] , give its measured pIC50 value.
Reply | ≥ 8.00

Ask | Identify measured pIC50 associated with CC(C)N1CCn2c1cc(OCc1ccc(Oc3ccc(F)c(F)c3)c(C#N)c1)nc2=O [Example E53]
Reply | ≥ 8.00

Ask | Give the value of pIC50 reported for the following: O=c1nc(OCc2ccc(Oc3cc(F)cc(C(F)(F)F)c3)c(F)c2)cc2n1CCN2 [Example 151]
Reply | ≥ 9.00

Ask | Answer with the recorded pIC50 for the compound listed here: N#Cc1ccc(Oc2ccc(COc3cc4n(c(=O)n3)CCN4)cc2C#N)cc1F [Example E64]
Reply | ≥ 8.00

Ask | Hello, please tell me recorded pIC50 for this one: O=c1nc(OCc2ccc(Oc3ccc(Cl)c(C(F)(F)F)c3)cc2)cc2n1CCN2 [Example 89]
Reply | ≥ 8.00

Ask | Specify reported pIC50 for the compound shown: CN1CCn2c1cc(OCc1ccc(Oc3cc(F)cc(F)c3)c(F)c1)nc2=O [Example E43, trifluoroacetic acid salt]
Reply | ≥ 8.00

Ask | Check the records and state pIC50 for O=c1nc(OCc2cc(F)c(Oc3ccc(F)cc3)c(F)c2)cc2n1CCN2 [Example E74]
Reply | ≥ 8.00

Ask | Supply measured pIC50 of CN1CCn2c1cc(OCc1ccc(Oc3ccc(Br)c(F)c3)c(C#N)c1)nc2=O [Example E70] in your reply.
Reply | ≥ 9.00

Ask | State, in one line, measured pIC50 of CN1CCn2c1cc(OCc1ccc(Oc3cc(F)c(F)c(F)c3)c(F)c1)nc2=O [Example E42]
Reply | ≥ 8.00

Ask | Quick one: give measured pIC50 for CN1CCn2c1cc(OCc1cc(F)c(Oc3ccc(F)cc3)c(F)c1)nc2=O [Example E12]
Reply | ≥ 8.00

Ask | Provide pIC50 value for the following compound: CN1CCn2c1cc(OCc1ccc(Oc3ccc(Cl)nc3)c(C#N)c1)nc2=O [Example 100]
Reply | ≥ 8.00

Ask | Quickly give me recorded pIC50 for CN1CCn2c1cc(OCc1ccc(Oc3ccc(Cl)c(Cl)c3)c(F)c1)nc2=O [Example E41]
Reply | ≥ 8.00

Ask | Specify measured pIC50 for N#Cc1cc(COc2cc3n(c(=O)n2)CCN3)ccc1Oc1ccc(C(F)(F)F)c(F)c1 [Example E65] .
Reply | 9.20

Ask | Check the records and state pIC50 for CN1CCn2c1cc(OCCc1ccc(Oc3ccc(Cl)c(C(F)(F)F)c3)cc1)nc2=O [Example E13]
Reply | ≥ 8.00

Ask | Please list pIC50 recorded for the compound CN1CCn2c1cc(OCc1ccc(Oc3ccc(Cl)c(F)c3)c(C#N)c1)nc2=O [Example E37, trifluoroacetic acid salt]
Reply | ≥ 8.00

Ask | Determine from records and report pIC50 for CN1CCn2c1cc(OCc1ccc(Oc3ccc(C#N)c(F)c3)c(C#N)c1)nc2=O [Example 95]
Reply | 8.90

Ask | Let me know recorded pIC50 for CN1CCn2c1cc(OCc1cc(F)c(Oc3cncc(C(F)(F)F)c3)c(F)c1)nc2=O [Example 147] , thanks.
Reply | 9.00

Ask | Identify measured pIC50 corresponding to O=c1nc(OCc2ccc(Oc3ccnc(C(F)(F)F)c3)c(F)c2)cc2n1CCN2 [Example 119]
Reply | 8.60

Ask | Given the compound CC(C)N1CCn2c1cc(OCc1ccc(Oc3cccc(C(F)(F)F)c3)c(C#N)c1)nc2=O [Example E51, trifluoroacetic acid salt] , write its reported pIC50.
Reply | ≥ 9.00

Ask | Give a short answer stating reported pIC50 for O=c1nc(OCc2ccc(Oc3ccc(Cl)c(Cl)c3)c(F)c2)cc2n1CCN2 [Example 98] .
Reply | ≥ 8.00

Ask | Kindly indicate its recorded pIC50. Item: CN1CCn2c1cc(OCc1ccc(Oc3ccc(C#N)c(C(F)(F)F)c3)c(F)c1)nc2=O [Example E83, trifluoroacetic acid salt]
Reply | 9.20

Ask | For the compound CN1CCn2c1cc(OCc1ccc(Oc3ccc(Cl)c(C(F)(F)F)c3)c(F)c1)nc2=O [Example E85] , give its reported pIC50.
Reply | ≥ 9.00

Ask | For the compound CN1CCn2c1cc(OCc1ccc(Oc3cccc(C#N)c3)c(C#N)c1)nc2=O [Example E62, trifluoroacetic acid salt] , give its measured pIC50 value.
Reply | ≥ 8.00

Ask | Specify measured pIC50 for CN1CCn2c1cc(OCc1ccc(Oc3cc(F)cc(F)c3)c(C#N)c1)nc2=O [Example 111] .
Reply | ≥ 8.00

Ask | State its pIC50: CN1CCn2c1cc(OCc1ccc(Oc3ccc(C#N)c(Cl)c3)c(C#N)c1)nc2=O [Example 122]
Reply | ≥ 8.00

Ask | Please give the documented pIC50 of CN1CCn2c1cc(OCc1cc(F)c(Oc3cccc(C(F)(F)F)c3)c(F)c1)nc2=O [Example 102]
Reply | ≥ 9.00
